Data provenance: patent US8324390B2

Entries and their chromatographic logP
Assay: log P determination by HPLC (EEC Directive 79/831 Annex V.A8)
Assay type: physicochemical
Details: reversed-phase HPLC, Zorbax Eclipse C18 column, determined by HPLC according to EEC Directive 79/831 Annex V.A8; read-out: log P
// print number alone

chromatographic logP measured on Cc1cc(C#N)cc(C(=O)NC(C)C)c1NC(=O)c1cc(Cn2nnnc2C(F)(F)F)nn1-c1ncccc1Br [Example 482] = 2.74

chromatographic logP measured on CCNC(=O)c1cc(Br)cc(C)c1NC(=O)c1cc(Cn2nnc(C(F)(F)F)n2)nn1-c1ncccc1Br [Example 411] = 3.36

====

Entries and their chromatographic logP
Test: log P determination by HPLC (EEC Directive 79/831 Annex V.A8)
Type: physicochemical
Conditions: log P
// print number alone

Known results for compounds:
C#CCNC(=O)c1cc(C#N)cc(C)c1NC(=O)c1cc(Cn2nnnc2C(F)(F)F)nn1-c1ncccc1Cl [Example 187]; 2.48
CSC[C@H](C)NC(=O)c1cc(Cl)cc(Cl)c1NC(=O)c1cc(Cn2nnc(C(F)(F)C(F)(F)F)n2)nn1-c1ncccc1Cl [Example 154]; 4.02
CC(C)NC(=O)c1cc(Cl)cc(Cl)c1NC(=O)c1cc(Cn2nnc(C(F)(F)C(F)(F)F)n2)nn1-c1ncccc1Cl [Example 153]; 3.81

chromatographic logP measured on Cc1cc(I)cc(C(=O)NC2CCC2)c1NC(=O)c1cc(Cn2nnc(C(F)F)n2)nn1-c1ncccc1Cl [Example 280] = 3.34

chromatographic logP measured on CNC(=O)c1cc(Br)cc(C)c1NC(=O)c1cc(Cn2nnnc2C(F)(F)F)nn1-c1ncccc1Cl [Example 170] = 2.72

chromatographic logP measured on Cc1cc(Cl)cc(C(=O)NC2CCC2)c1NC(=O)c1cc(Cn2nnc(C(F)(F)F)n2)nn1-c1ncccc1Cl [Example 49] = 3.6

chromatographic logP measured on CNC(=O)c1cc(Cl)cc(Cl)c1NC(=O)c1cc(Cn2nnnc2C(F)(F)F)nn1-c1ncccc1Cl [Example 184] = 2.63

====

Assay: log P determination by HPLC (EEC Directive 79/831 Annex V.A8)
Format: physicochemical
Conditions: log P
Reported metric: chromatographic logP
// print number alone

Cc1cc(I)cc(C(=O)NC2CC2)c1NC(=O)c1cc(Cn2nnc(C(F)F)n2)nn1-c1ncccc1Cl; 2.96
CCNC(=O)c1cc(Cl)cc(C)c1NC(=O)c1cc(Cn2nnc(C(F)(F)C(F)(F)F)n2)nn1-c1ncccc1Cl; 3.65
CNC(=O)c1cc(C)cc(C)c1NC(=O)c1cc(Cn2nnnc2C(F)(F)F)nn1-c1ncccc1Cl; 2.48
O=C(NC1CC1)c1cc(Cl)cc(Cl)c1NC(=O)c1cc(Cn2nnc(C(F)F)n2)nn1-c1ncccc1Cl; 2.7
Cc1cc(Cl)cc(C(=O)NC(C)CF)c1NC(=O)c1cc(Cn2nnc(C(F)(F)F)n2)nn1-c1ncccc1Cl (centres unmarked); 3.3

chromatographic logP measured on `CNC(=O)c1cc(C#N)cc(C)c1NC(=O)c1cc(Cn2nnc(C(F)F)n2)nn1-c1ncccc1Cl` = 2.17

====

Test: log P determination by HPLC (EEC Directive 79/831 Annex V.A8)
Assay type: physicochemical
Conditions: reversed-phase HPLC, Zorbax Eclipse C18 column, by HPLC according to EEC Directive 79/831 Annex V.A8; read-out: log P
Method: The measurements were carried out using an Agilent 1100 LC system with a 50*4.6 Zorbax Eclipse C18 1.8 μm column (oven temperature 55° C., flow rate 2.0 ml/min). The following mobile phases were used: Mobile phase A: acetonitrile+1000 μl of formic acid/l Mobile phase B: Millipore water+900 μl of formic acid/l
Reported metric: chromatographic logP

Known results for compounds:
Cc1cc(C#N)cc(C(=O)NCC#N)c1NC(=O)c1cc(Cn2nnc(C(F)(C(F)(F)F)C(F)(F)F)n2)nn1-c1ncccc1Cl [Example 374]; 3.29
COCCNC(=O)c1cc(C#N)cc(C)c1NC(=O)c1cc(Cn2nnc(C(F)(C(F)(F)F)C(F)(F)F)n2)nn1-c1ncccc1Cl [Example 395]; 3.48
CNC(=O)c1cc(C#N)cc(C)c1NC(=O)c1cc(Cn2nnc(C(F)(F)F)n2)nn1-c1ncccc1Cl [Example 12]; 2.66
Cc1cc(Cl)cc(C(=O)NC(C)C2CC2)c1NC(=O)c1cc(Cn2nnc(C(F)(C(F)(F)F)C(F)(F)F)n2)nn1-c1ncccc1Cl (stereo not drawn) [Example 366]; 4.5
Cc1cc(Cl)cc(C(=O)NC2CC2)c1NC(=O)c1cc(Cn2nnc(C(F)(F)F)n2)nn1-c1ncccc1C(F)(F)F [Example 225]; 3.39

In the following, a different compound is considered.
chromatographic logP measured on Cc1cc(C#N)cc(C(=O)NC(C)C2CC2)c1NC(=O)c1cc(Cn2nnc(C(F)(C(F)(F)F)C(F)(F)F)n2)nn1-c1ncccc1Cl (stereo not drawn) [Example 368] = 4.07

====

Test: log P determination by HPLC (EEC Directive 79/831 Annex V.A8)
Assay type: physicochemical
Details: log P
Entries and their chromatographic logP
// print number alone

Known results for compounds:
Cc1cc(Br)cc(C(=O)NCC#N)c1NC(=O)c1cc(Cn2nnc(C(F)(F)F)n2)nn1-c1ncccc1Cl [Example 52]; 3.02
Cc1cc(I)cc(C(=O)NCC#N)c1NC(=O)c1cc(Cn2nnc(C(F)(C(F)(F)F)C(F)(F)F)n2)nn1-c1ncccc1Cl [Example 384]; 3.82
CNC(=O)c1cc(C#N)cc(C)c1NC(=O)c1cc(C(C)n2nnnc2C(F)(F)F)nn1-c1ncccc1Cl (stereo not shown) [Example 512]; 2.53

chromatographic logP measured on Cc1cc(Br)cc(C(=O)NC(C)(C)C)c1NC(=O)c1cc(Cn2nnc(C(F)(F)F)n2)nn1-c1ncccc1Cl [Example 114] = 4

chromatographic logP measured on Cc1cc(Cl)cc(C(=O)NC(C)C2CC2)c1NC(=O)c1cc(Cn2nnnc2C(F)(F)C(F)(F)F)nn1-c1ncccc1Cl (stereo not shown) [Example 199] = 3.88

chromatographic logP measured on Cc1cc(I)cc(C(=O)NCC#N)c1NC(=O)c1cc(Cn2nnc(C(F)(F)F)n2)nn1-c1ncccc1Cl [Example 70] = 3.14

chromatographic logP measured on Cc1cc(Cl)cc(C(=O)NC2CC2)c1NC(=O)c1cc(Cn2nnnc2C(F)(F)C(F)(F)F)nn1-c1ncccc1Cl [Example 200] = 3.32

====

Tested on: larvae of the mustard beetle (Phaedon cochleariae)
Experiment: Phaedon test (PHAECO spray treatment)
Settings: Phaedon cochleariae, in Brassica rapa, foliar, read-out: effect in % (beetle larvae killed)
Entries and their pest or weed control at 100 g/ha

Known results for compounds:
CNC(=O)c1cc(Cl)cc(C)c1NC(=O)c1cc(Cn2nnc(C(F)(F)F)n2)nn1-c1ncccc1Br; ≥ 80%
Cc1cc(I)cc(C(=O)NCC#N)c1NC(=O)c1cc(Cn2nnc(C(F)F)n2)nn1-c1ncccc1Cl; ≥ 80%
Cc1cc(C#N)cc(C(=O)NC(C)C)c1NC(=O)c1cc(Cn2nnc(C(F)F)n2)nn1-c1ncccc1Cl; ≥ 80%
Cc1cc(Br)cc(C(=O)NC(C)C)c1NC(=O)c1cc(Cn2nnc(C(F)(F)F)n2)nn1-c1ncccc1Cl; ≥ 80%
C=C(C)CNC(=O)c1cc(C#N)cc(C)c1NC(=O)c1cc(Cn2nnc(C(F)(F)F)n2)nn1-c1ncccc1Cl; ≥ 80%

pest or weed control at 100 g/ha measured on `Cc1cc(C#N)cc(C(=O)NC2CC2)c1NC(=O)c1cc(Cn2nnc(C(F)(F)F)n2)nn1-c1ncccc1Br` = ≥ 80%

pest or weed control at 100 g/ha measured on `Cc1cc(F)cc(C(=O)NC2CC2)c1NC(=O)c1cc(Cn2nnc(C(F)(F)C(F)(F)F)n2)nn1-c1ncccc1Cl` = ≥ 80%

pest or weed control at 100 g/ha measured on `CNC(=O)c1cc(F)cc(C)c1NC(=O)c1cc(Cn2nnc(C(F)(F)C(F)(F)F)n2)nn1-c1ncccc1Cl` = ≥ 80%

pest or weed control at 100 g/ha measured on `CNC(=O)c1cc(Cl)cc(Cl)c1NC(=O)c1cc(Cn2nnc(C(F)(F)C(F)(F)F)n2)nn1-c1ncccc1Cl` = ≥ 80%

pest or weed control at 100 g/ha measured on `Cc1cc(Br)cc(C(=O)NC2CC2)c1NC(=O)c1cc(Cn2nnnc2C(F)(F)F)nn1-c1ncccc1Cl` = ≥ 80%

====

Entries and their chromatographic logP
Experiment: log P determination by HPLC (EEC Directive 79/831 Annex V.A8)
Assay type: physicochemical
Settings: log P
// print number alone

Cc1cc(F)cc(C(=O)NC2CC2)c1NC(=O)c1cc(Cn2nnc(C(F)(F)F)n2)nn1-c1ncccc1Cl; 2.87
Cc1cc(Cl)cc(C(=O)NC(C)C)c1NC(=O)c1cc(Cn2nnnc2C(F)F)nn1-c1ncccc1Cl; 2.75
CCNC(=O)c1cc(Cl)cc(C)c1NC(=O)c1cc(Cn2nnc(C(F)(F)F)n2)nn1-c1ncccc1Cl; 3.23

chromatographic logP measured on Cc1cc(C#N)cc(C(=O)NC(C)C2CC2)c1NC(=O)c1cc(Cn2nnc(C(F)F)n2)nn1-c1ncccc1Cl (stereo not shown) = 2.86

chromatographic logP measured on `Cc1cc(C#N)cc(C(=O)NCCCN)c1NC(=O)c1cc(Cn2nnc(C(F)(F)F)n2)nn1-c1ncccc1Cl` = 1.63

chromatographic logP measured on `CNC(=O)c1cc(Cl)cc(C)c1NC(=O)c1cc(Cn2nnc(C3CC3)n2)nn1-c1ncccc1Cl` = 2.52

chromatographic logP measured on `Cc1cc(I)cc(C(=O)NC2CC2)c1NC(=O)c1cc(Cn2nnc(C(F)(C(F)(F)F)C(F)(F)F)n2)nn1-c1ncccc1Cl` = 4.18

chromatographic logP measured on `CSC[C@H](C)NC(=O)c1cc(Br)cc(C)c1NC(=O)c1cc(Cn2nnc(C(F)(F)F)n2)nn1-c1ncccc1Cl` = 3.77

chromatographic logP measured on Cc1cc(C#N)cc(C(N)=O)c1NC(=O)c1cc(C(C)n2nnc(C(F)(F)F)n2)nn1-c1ncccc1Cl (stereo not shown) = 2.66

chromatographic logP measured on `CNC(=O)c1cc(Cl)cc(Cl)c1NC(=O)c1cc(Cn2nnc(C(F)(F)F)n2)nn1-c1ncccc1Cl` = 2.93

chromatographic logP measured on `CNC(=O)c1cc(Cl)cc(C)c1NC(=O)c1cc(Cn2nnnc2C(F)(F)C(F)(F)F)nn1-c1ncccc1Cl` = 3.1

chromatographic logP measured on `CNC(=O)c1cc(F)cc(C)c1NC(=O)c1cc(Cn2nnc(C(F)F)n2)nn1-c1ncccc1Cl` = 2.21

chromatographic logP measured on Cc1cc(C#N)cc(C(=O)NC(C)C2CC2)c1NC(=O)c1cc(Cn2nnnc2C(F)(F)F)nn1-c1ncccc1Cl (stereo not shown) = 3

chromatographic logP measured on `COCCNC(=O)c1cc(C#N)cc(C)c1NC(=O)c1cc(Cn2nnnc2C(F)(F)F)nn1-c1ncccc1Cl` = 2.4

chromatographic logP measured on CCNC(=O)c1cc(C#N)cc(C)c1NC(=O)c1cc(C(C)n2nnnc2C(F)(F)F)nn1-c1ncccc1Cl (stereo not shown) = 2.74

chromatographic logP measured on `Cc1cc(I)cc(C(=O)NC(C)(C)C)c1NC(=O)c1cc(Cn2nnc(C(F)(F)F)n2)nn1-c1ncccc1Cl` = 4.12
